Tested On: PCSK9/LDLR (Homo sapiens, UniProt Q8NBP7)
Protocol Description: Inhibition of recombinant His-tagged PCSK9 (unknown origin) binding to recombinant […] AB domain (unknown origin) measured after 2 hrs by ELISA
Type: protein assay
Value Kind: pIC50
Answers are plain numbers, as −log10 of the molar value.

Q: Read the entry H-LILPKHSDAD-OH and write its reported pIC50.
Result: 5.80

---

Tested On: PCSK9/LDLR (Homo sapiens, UniProt Q8NBP7)
Protocol Description: Inhibition of recombinant His-tagged PCSK9 (unknown origin) binding to recombinant […] AB domain (unknown origin) measured after 2 hrs by ELISA
Value Kind: IC50

Please review the entries below; each comes with its answer.
CNCCCCCn1cncc1-c1ncc(-c2ncc(-c3ccc(OC)cc3)n2C)n1CCc1ccccc1	3.06 µM
CC(C)C[C@H](C(=O)N1CCN([C@@H](CC(N)=O)C(=O)N[C@@H](CCCNC(=N)N)C(=O)N[C@H]2CCOC2=O)CC1)N1C(=O)N[C@@H](CC(=O)O)C1=O	20 to 40 µM

Then this compound:
Q: Read the entry CNCCCCCn1cncc1-c1ncc(-c2ncc(-c3ccc(OC)cc3)n2C)n1Cc1ccccc1 and write its reported IC50.
Result: 1.38 µM

src = ChEMBL document CHEMBL4359840
